tested on: Fibrinogen (Alexa647-labelled); experiment: fibrinogen binders on compound microarrays, profiling panel, artefact control for SMM control-protein annotation, biochemical, small-molecule microarray, 635/667 nm fluorescence (AID 1131); conditions: fibrinogen-A647 binding fluorescence, higher = more signal;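 note: z-score merges 667 nm fluorescence with per-spot signal-to-noise over triplicate slides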
Assign Yes whenever composite z-score does not fall below 0.03; assign No whenever it does.

Example entries and their recorded answers appear below.
CCCCC(=C=CC[C@@H](O)c1ccc(OCCO)cc1)CCO | No
O=C1O[C@H](c2ccccc2)[C@H](c2ccccc2)N2[C@H]1[C@@H](C(=O)O)[C@]1(C(=O)Nc3ccccc31)[C@H]2c1ccc(OCCO)cc1 | Yes
CC(CO)N1C(=O)[C@@H]2[C@H]3C(=O)OCC=C[C@H]3OC23C=CCN(c2ccc4ccccc4c2)C(=O)[C@@H]13 (some centres not stated) | No
CCCCCCc1nc(-c2ccc(OC)nc2)c(C)c2c1[Si](C(C)C)(C(C)C)OC2 | No
COCCOC(=O)N1C(=O)[C@@]2(c3cc(C#CCNC(N)=O)ccc31)[C@H](C(=O)Nc1nc3ccccc3s1)[C@H]1C(=O)O[C@H](c3ccccc3)[C@H](c3ccccc3)N1[C@@H]2c1ccc(O)cc1 | Yes

Quick check: does COC(=O)[C@@]1(Cc2ccc(F)cc2)[C@H]2c3cc(C(=O)N4CCCC4)n(Cc4ccc(C(F)(F)F)nc4)c3C[C@H]2CN1C(=O)c1ccccc1 have composite z-score greater than or equal to 0.03?
Yes

Does COC(=O)[C@@]1(Cc2ccc(F)cc2)[C@H]2c3cc(C(=O)N4CCCC4)n(C[C@H](O)CO)c3C[C@H]2CN1C(=O)c1ccccc1 have a reported composite z-score of at least 0.03?
Yes

Values compiled from PubChem BioAssay.
